Reference source for all entries: ChEMBL document CHEMBL4002623

tested on: Enterobacter cloacae; experiment: Antibacterial activity against Enterobacter cloacae 45301 by agar dilution method; assay type: functional
propertyName: MIC

N=C(c1ccc2cc(-c3ccc(Oc4ccc(-c5cc6ccc(C(=N)N7CCC(N8CCCC8)CC7)cc6[nH]5)cc4)cc3)[nH]c2c1)N1CCC(N2CCCC2)CC1 :: 64 µg/mL
N=C(NC1CCC1)c1ccc2cc(-c3ccc(Oc4ccc(-c5cc6ccc(C(=N)NC7CCC7)cc6[nH]5)cc4)cc3)[nH]c2c1 :: > 128 µg/mL
CCC(C)NC(=N)c1ccc2cc(-c3ccc(Oc4ccc(-c5cc6ccc(C(=N)NC(C)CC)cc6[nH]5)cc4)cc3)[nH]c2c1 (configuration not stated) :: 32 µg/mL
CCCNC(=N)c1ccc2cc(-c3ccc(Oc4ccc(-c5cc6ccc(C(=N)NCCC)cc6[nH]5)cc4)cc3)[nH]c2c1 :: > 128 µg/mL

Input line: Tell me MIC reported for CCC(CC)NC(=N)c1ccc2cc(-c3ccc(Oc4ccc(-c5cc6ccc(C(=N)NC(CC)CC)cc6[nH]5)cc4)cc3)[nH]c2c1
Output line: 16 µg/mL

Input line: Tell me MIC reported for CCNC(=N)c1ccc2cc(-c3ccc(Oc4ccc(-c5cc6ccc(C(=N)NCC)cc6[nH]5)cc4)cc3)[nH]c2c1
Output line: 64 µg/mL

Input line: Tell me MIC reported for c1cc(-c2cc3ccc(C4=NCCN4)cc3[nH]2)ccc1Oc1ccc(-c2cc3ccc(C4=NCCN4)cc3[nH]2)cc1
Output line: > 128 µg/mL

----------
test system: Klebsiella pneumoniae; assay: Antibacterial activity against extended-spectrum beta-lactamase-positive Klebsiella pneumoniae ATCC 700603 by agar dilution method; type: functional
propertyName: MIC

N=C(NC1CCCC1)c1ccc2cc(-c3ccc(Oc4ccc(-c5cc6ccc(C(=N)NC7CCCC7)cc6[nH]5)cc4)cc3)[nH]c2c1 :: > 128 mg/L
N=C(NC1CC1)c1ccc2cc(-c3ccc(Oc4ccc(-c5cc6ccc(C(=N)NC7CC7)cc6[nH]5)cc4)cc3)[nH]c2c1 :: > 128 mg/L
CC1CC(C)CN(C(=N)c2ccc3cc(-c4ccc(Oc5ccc(-c6cc7ccc(C(=N)N8CC(C)CC(C)C8)cc7[nH]6)cc5)cc4)[nH]c3c2)C1 (stereo unspecified) :: > 128 mg/L
CCCNC(=N)c1ccc2cc(-c3ccc(Oc4ccc(-c5cc6ccc(C(=N)NCCC)cc6[nH]5)cc4)cc3)[nH]c2c1 :: > 128 mg/L
c1cc(-c2cc3ccc(C4=NCCN4)cc3[nH]2)ccc1Oc1ccc(-c2cc3ccc(C4=NCCN4)cc3[nH]2)cc1 :: > 128 mg/L

// moving on: another record for MIC
Input line: Tell me MIC reported for N=C(c1ccc2cc(-c3ccc(Oc4ccc(-c5cc6ccc(C(=N)N7CCCC7)cc6[nH]5)cc4)cc3)[nH]c2c1)N1CCCC1
Output line: 128 mg/L

----------
system: Klebsiella pneumoniae; experiment: Antibacterial activity against extended-spectrum beta-lactamase-positive Klebsiella pneumoniae ATCC 700603 by agar dilution method; assay type: functional
propertyName: MIC (µg/mL)
Please reply with the bare figure in µg/mL and do not write the unit itself.

CN(C)C(=N)c1ccc2cc(-c3ccc(Oc4ccc(-c5cc6ccc(C(=N)N(C)C)cc6[nH]5)cc4)cc3)[nH]c2c1 :: 8
CC(C)NC(=N)c1ccc2cc(-c3ccc(Oc4ccc(-c5cc6ccc(C(=N)NC(C)C)cc6[nH]5)cc4)cc3)[nH]c2c1 :: 64
N=C(c1ccc2cc(-c3ccc(Oc4ccc(-c5cc6ccc(C(=N)N7CCC7)cc6[nH]5)cc4)cc3)[nH]c2c1)N1CCC1 :: 64
CCC(C)NC(=N)c1ccc2cc(-c3ccc(Oc4ccc(-c5cc6ccc(C(=N)NC(C)CC)cc6[nH]5)cc4)cc3)[nH]c2c1 (centres undefined) :: 64
CCC(CC)NC(=N)c1ccc2cc(-c3ccc(Oc4ccc(-c5cc6ccc(C(=N)NC(CC)CC)cc6[nH]5)cc4)cc3)[nH]c2c1 :: 16

// moving on: another record for MIC
Input line: Tell me MIC reported for CCNC(=N)c1ccc2cc(-c3ccc(Oc4ccc(-c5cc6ccc(C(=N)NCC)cc6[nH]5)cc4)cc3)[nH]c2c1
Output line: 64

----------
test system: Enterococcus faecium; experiment: Antibacterial activity against vancomycin-resistant Enterococcus faecium 05-8 by agar dilution method; type: functional
propertyName: MIC

Check out these entries, answers already filled in.
N=C(NC1CCC1)c1ccc2cc(-c3ccc(Oc4ccc(-c5cc6ccc(C(=N)NC7CCC7)cc6[nH]5)cc4)cc3)[nH]c2c1 :: > 128 µg/mL
CC1CC(C)CN(C(=N)c2ccc3cc(-c4ccc(Oc5ccc(-c6cc7ccc(C(=N)N8CC(C)CC(C)C8)cc7[nH]6)cc5)cc4)[nH]c3c2)C1 (stereo not drawn) :: > 128 µg/mL

Input line: Recall the reported MIC of N=C(NC1CCCC1)c1ccc2cc(-c3ccc(Oc4ccc(-c5cc6ccc(C(=N)NC7CCCC7)cc6[nH]5)cc4)cc3)[nH]c2c1 on Enterococcus faecium and write it down.
Output line: > 128 µg/mL

----------
Reported MIC values are given for each entry in this list.
tested on: Escherichia coli; test: Antibacterial activity against extended-spectrum beta-lactamase-negative Escherichia coli ATCC 25922 by agar dilution method; assay type: functional

Check out these entries, answers already filled in.
CC1CC(C)CN(C(=N)c2ccc3cc(-c4ccc(Oc5ccc(-c6cc7ccc(C(=N)N8CC(C)CC(C)C8)cc7[nH]6)cc5)cc4)[nH]c3c2)C1 (centres undefined) :: > 128 µg/mL
N=C(c1ccc2cc(-c3ccc(Oc4ccc(-c5cc6ccc(C(=N)N7CCCCC7)cc6[nH]5)cc4)cc3)[nH]c2c1)N1CCCCC1 :: > 128 µg/mL
c1cc(-c2cc3ccc(C4=NCCCN4)cc3[nH]2)ccc1Oc1ccc(-c2cc3ccc(C4=NCCCN4)cc3[nH]2)cc1 :: 64 µg/mL
CNC(=N)c1ccc2cc(-c3ccc(Oc4ccc(-c5cc6ccc(C(=N)NC)cc6[nH]5)cc4)cc3)[nH]c2c1 :: 128 µg/mL
CCC(C)NC(=N)c1ccc2cc(-c3ccc(Oc4ccc(-c5cc6ccc(C(=N)NC(C)CC)cc6[nH]5)cc4)cc3)[nH]c2c1 (centres undefined) :: 16 µg/mL

Input line: Tell me MIC reported for N=C(NC1CCCC1)c1ccc2cc(-c3ccc(Oc4ccc(-c5cc6ccc(C(=N)NC7CCCC7)cc6[nH]5)cc4)cc3)[nH]c2c1
Output line: > 128 µg/mL

Input line: Tell me MIC reported for c1cc(-c2cc3ccc(C4=NCCN4)cc3[nH]2)ccc1Oc1ccc(-c2cc3ccc(C4=NCCN4)cc3[nH]2)cc1
Output line: > 128 µg/mL

Input line: Tell me MIC reported for N=C(c1ccc2cc(-c3ccc(Oc4ccc(-c5cc6ccc(C(=N)N7CCC7)cc6[nH]5)cc4)cc3)[nH]c2c1)N1CCC1
Output line: 16 µg/mL

Input line: Tell me MIC reported for CC(C)NC(=N)c1ccc2cc(-c3ccc(Oc4ccc(-c5cc6ccc(C(=N)NC(C)C)cc6[nH]5)cc4)cc3)[nH]c2c1
Output line: 16 µg/mL

----------
tested on: Proteus vulgaris; experiment: Antibacterial activity against Proteus vulgaris ATCC 29905 by agar dilution method; format: functional
propertyName: MIC

Check out these entries, answers already filled in.
CC1CCN(C(=N)c2ccc3cc(-c4ccc(Oc5ccc(-c6cc7ccc(C(=N)N8CCC(C)CC8)cc7[nH]6)cc5)cc4)[nH]c3c2)CC1 :: > 128 mg/L
N=C(NC1CC1)c1ccc2cc(-c3ccc(Oc4ccc(-c5cc6ccc(C(=N)NC7CC7)cc6[nH]5)cc4)cc3)[nH]c2c1 :: > 128 mg/L

Input line: Tell me MIC reported for C[C@H]1COc2c(N3CCN(C)CC3)c(F)cc3c(=O)c(C(=O)O)cn1c23.C[C@H]1COc2c(N3CCN(C)CC3)c(F)cc3c(=O)c(C(=O)O)cn1c23.O
Output line: ≤ 0.03 mg/L

----------
test system: Enterococcus faecalis; test: Antibacterial activity against vancomycin-resistant Enterococcus faecalis ATCC 51299 by agar dilution method; type: functional
# if measured MIC < 2 mg/L: met  # else: not met

Illustrative cases are given below, each with its answer.
CC1CC(C)CN(C(=N)c2ccc3cc(-c4ccc(Oc5ccc(-c6cc7ccc(C(=N)N8CC(C)CC(C)C8)cc7[nH]6)cc5)cc4)[nH]c3c2)C1 (stereo unspecified) :: not met
N=C(NC1CCC1)c1ccc2cc(-c3ccc(Oc4ccc(-c5cc6ccc(C(=N)NC7CCC7)cc6[nH]5)cc4)cc3)[nH]c2c1 :: not met
CN(C)C(=N)c1ccc2cc(-c3ccc(Oc4ccc(-c5cc6ccc(C(=N)N(C)C)cc6[nH]5)cc4)cc3)[nH]c2c1 :: met
CCCNC(=N)c1ccc2cc(-c3ccc(Oc4ccc(-c5cc6ccc(C(=N)NCCC)cc6[nH]5)cc4)cc3)[nH]c2c1 :: not met
CNC(=N)c1ccc2cc(-c3ccc(Oc4ccc(-c5cc6ccc(C(=N)NC)cc6[nH]5)cc4)cc3)[nH]c2c1 :: met

Input line: I wonder whether CCC(CC)NC(=N)c1ccc2cc(-c3ccc(Oc4ccc(-c5cc6ccc(C(=N)NC(CC)CC)cc6[nH]5)cc4)cc3)[nH]c2c1 has MIC below 2 mg/L. Can you tell?
Output line: not met

Input line: I wonder whether N=C(c1ccc2cc(-c3ccc(Oc4ccc(-c5cc6ccc(C(=N)N7CCC(N8CCCC8)CC7)cc6[nH]5)cc4)cc3)[nH]c2c1)N1CCC(N2CCCC2)CC1 has MIC below 2 mg/L. Can you tell?
Output line: not met

Input line: I wonder whether N=C(c1ccc2cc(-c3ccc(Oc4ccc(-c5cc6ccc(C(=N)N7CCCCC7)cc6[nH]5)cc4)cc3)[nH]c2c1)N1CCCCC1 has MIC below 2 mg/L. Can you tell?
Output line: not met
